- TEST DESCRIPTION: recombinant barcode read abundance after kanamycin selection (control-corrected) (log10(CPM+1)); higher = more efficient recombination; sequences stand for … in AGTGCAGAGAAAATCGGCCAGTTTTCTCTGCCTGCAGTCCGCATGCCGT…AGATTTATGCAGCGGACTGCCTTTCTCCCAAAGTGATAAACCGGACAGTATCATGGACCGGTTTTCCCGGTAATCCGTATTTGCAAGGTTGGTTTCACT; site = the 11-nt target
Kindly return Y if reported recombinant barcode read abundance (log10) is no lower than 0.2; return N if it is lower.

TGTCGGACTTGGGTTCTAACCTGTTGCAG (site TGTCGGACTCT) :: Y
AGCAGAGCTTGGGTTCTAACCTGTTGCTG (site AGCAGAGCTCT) :: Y
ACAGTAGCTTGGGTTCTAACCTGTTGCTG (site ACAGTAGCTCA) :: Y
CATATCCCTTGGGTTCTAACCTGTTGCAT (site CTAATCCCTAT) :: N
GGCTATGCTTGGGTTCTAACCTGTTGCCT (site GCCTATGCTAG) :: N
GGAAGGCCTTGGGTTCTAACCTGTTGCTT (site GGAAGGCCTAA) :: Y
TGGCGTACTTGGGTTCTAACCTGTTGCCT (site TGGCGTACTAG) :: Y
TACTTAACTTGGGTTCTAACCTGTTGCCT (site TACTAAACTAG) :: N
CGAGTGTCTTGGGTTCTAACCTGTTGCTA (site CGAGTGTCTTA) :: Y
AGGAGCCCTTGGGTTCTAACCTGTTGCTG (site AGGAGCCCTGA) :: N
TAGTATCCTTGGGTTCTAACCTGTTGCGT (site TAGTATCCTAC) :: Y
CGGCAGTCTTGGGTTCTAACCTGTTGCGT (site CGGCAGTCTAC) :: Y
TGACGTCCTTGGGTTCTAACCTGTTGCTT (site TGACGTCCTAT) :: Y
TAGGCGCCTTGGGTTCTAACCTGTTGCTT (site TAGGCGCCTAG) :: N

====

- TEST DESCRIPTION: recombinant barcode read abundance after kanamycin selection (control-corrected) (log10(CPM+1)); higher = more efficient recombination; sequences stand for … in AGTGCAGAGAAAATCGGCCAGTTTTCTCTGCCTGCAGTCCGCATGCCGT…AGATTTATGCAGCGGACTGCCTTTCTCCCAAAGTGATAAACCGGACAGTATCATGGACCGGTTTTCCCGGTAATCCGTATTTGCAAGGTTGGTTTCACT; site = the 11-nt target
Each item that follows carries a reported recombinant barcode read abundance (log10).
OBSERVABLE: recombinant barcode read abundance (log10)

CTAGTACCTTGGGTTCTAACCTGTTGCCT (site TTAGTAACTAG) :: 0.0602
CAGACGCCTTGGGTTCTAACCTGTTGCAG (site CACACTCCTCT) :: 0.039
GGGTCGGCTTGGGTTCTAACCTGTTGCGG (site GGGTCGGCTGC) :: 0.0285
TAGGCTCCTTGGGTTCTAACCTGTTGCAT (site TAGGCTCCTCT) :: 0.0701
ACTAACCCTTGGGTTCTAACCTGTTGCCT (site ACTAACCCTAG) :: 1.47
AAGTACACTTGGGTTCTAACCTGTTGCTG (site CGACTGTCTAG) :: 0.0537
CAGCGGCCTTGGGTTCTAACCTGTTGCCT (site CAGGGGCCTAG) :: 0.121
GGGGCTACTTGGGTTCTAACCTGTTGCAC (site GGGGCTACTAG) :: 0.58
GAGTACTCTTGGGTTCTAACCTGTTGCTA (site GAGTCTTCTTA) :: 0.00735
CTACCCTCTTGGGTTCTAACCTGTTGCAT (site CTAACCTCTAT) :: 0.026
AATTCACCTTGGGTTCTAACCTGTTGCCT (site CATTCACCTAG) :: 0.0863
CGAGGGTCTTGGGTTCTAACCTGTTGCCT (site CGAGGGGCTAG) :: 0.0907
AATTCAGCTTGGGTTCTAACCTGTTGCCT (site AATTTAGCTAG) :: 0.0408
CGATTATCTTGGGTTCTAACCTGTTGCCT (site CGATTAGCTAG) :: 0.0752
CAGGGGCCTTGGGTTCTAACCTGTTGCCT (site CAGTGGCCTAG) :: 0.185
CAGACGCCTTGGGTTCTAACCTGTTGCAG (site CAGACGCCTCT) :: 1.38
TAGTTCACTTGGGTTCTAACCTGTTGCAT (site TAGTTCACTAT) :: 0.382
TGGGACCCTTGGGTTCTAACCTGTTGCAT (site TGGGACCCTAT) :: 1.25

====

- TEST DESCRIPTION: recombinant UMI read abundance after kanamycin selection (control-corrected) (log10(CPM+1)); higher = more efficient recombination; extreme values may be limits of the assay; sequences stand for … in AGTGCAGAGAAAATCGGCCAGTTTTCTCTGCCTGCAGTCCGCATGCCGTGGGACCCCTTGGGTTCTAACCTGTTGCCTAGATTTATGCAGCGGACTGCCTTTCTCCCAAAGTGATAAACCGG…AGGTTGGTTTCACT; site = the 11-nt donor
OBSERVABLE: recombinant UMI read abundance (log10)

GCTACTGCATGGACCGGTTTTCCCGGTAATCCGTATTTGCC (site GCTCCTGCTGG) :: 0
ACTAATGCATGGACCGGTTTTCCCGGTAATCCGTATTTGGT (site ACTAATGCTAC) :: 1.88
GTGATGCCATGGACCGGTTTTCCCGGTAATCCGTATTTGAT (site GTGATGCCTAT) :: 1.41
CAAGTATCATGGACCGGTTTTCCCGGTAATCCGTATTTGAG (site CTAGTATCTGT) :: 0
AATTATCCATGGACCGGTTTTCCCGGTAATCCGTATTTGGA (site AATTATGCTTC) :: 0.0173

====

- TEST DESCRIPTION: recombinant UMI read abundance after kanamycin selection (control-corrected) (log10(CPM+1)); higher = more efficient recombination; extreme values may be limits of the assay; sequences stand for … in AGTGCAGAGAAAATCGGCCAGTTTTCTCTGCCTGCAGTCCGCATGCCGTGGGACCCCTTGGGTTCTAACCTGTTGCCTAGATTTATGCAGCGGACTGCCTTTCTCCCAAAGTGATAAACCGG…AGGTTGGTTTCACT; site = the 11-nt donor
Reported recombinant UMI read abundance (log10) by item:
OBSERVABLE: recombinant UMI read abundance (log10)

TCGAAGCCATGGACCGGTTTTCCCGGTAATCCGTATTTGGG (site ACGAAGCCTCC) :: 0.0545
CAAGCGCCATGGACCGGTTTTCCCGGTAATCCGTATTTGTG (site CAAGCTCCTCA) :: 0.185
TTTGTGACATGGACCGGTTTTCCCGGTAATCCGTATTTGAG (site TTTGTGACTCT) :: 0.0187
ATCTGGGCATGGACCGGTTTTCCCGGTAATCCGTATTTGGT (site ATCTGGGCTAC) :: 0.162
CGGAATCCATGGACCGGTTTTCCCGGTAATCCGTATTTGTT (site CGGCATCCTAA) :: 0.0145
TAACCACCATGGACCGGTTTTCCCGGTAATCCGTATTTGAT (site TAACCACCTAT) :: 0.0138
GGCCTAGCATGGACCGGTTTTCCCGGTAATCCGTATTTGTT (site CGCCTAGCTAA) :: 0.0146
CCGGAGTCATGGACCGGTTTTCCCGGTAATCCGTATTTGCC (site CGGGAGTCTGG) :: 0

====

- TEST DESCRIPTION: recombinant UMI read abundance after kanamycin selection (control-corrected) (log10(CPM+1)); higher = more efficient recombination; extreme values may be limits of the assay; sequences stand for … in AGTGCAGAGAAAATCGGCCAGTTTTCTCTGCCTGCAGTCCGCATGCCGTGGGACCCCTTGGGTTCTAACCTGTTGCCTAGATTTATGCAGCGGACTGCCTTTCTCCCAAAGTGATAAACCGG…AGGTTGGTTTCACT; site = the 11-nt donor
OBSERVABLE: recombinant UMI read abundance (log10)

AACCACGCATGGACCGGTTTTCCCGGTAATCCGTATTTGGG (site AATCACGCTCC) :: 0.00485
CGCGAGTCATGGACCGGTTTTCCCGGTAATCCGTATTTGTC (site CGCGAGTCTGA) :: 2.8
TGTATTTCATGGACCGGTTTTCCCGGTAATCCGTATTTGGG (site TGTATTTCTCC) :: 0.402

====

Property: recombinant UMI read abundance (log10); scope: individual sequences
- TEST DESCRIPTION: recombinant UMI read abundance after kanamycin selection (control-corrected) (log10(CPM+1)); higher = more efficient recombination; extreme values may be limits of the assay; sequences stand for … in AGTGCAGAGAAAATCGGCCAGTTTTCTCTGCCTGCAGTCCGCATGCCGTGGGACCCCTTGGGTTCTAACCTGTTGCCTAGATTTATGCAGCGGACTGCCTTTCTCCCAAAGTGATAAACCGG…AGGTTGGTTTCACT; site = the 11-nt donor
OBSERVABLE: recombinant UMI read abundance (log10)

TATGTAGCATGGACCGGTTTTCCCGGTAATCCGTATTTGTT (site TATGTAGCTAA) :: 1.23
ACCGTTACATGGACCGGTTTTCCCGGTAATCCGTATTTGTC (site ACCGTTACTGA) :: 1.49
CGGAACACATGGACCGGTTTTCCCGGTAATCCGTATTTGCA (site AGGAAGACTTG) :: 0.0118
AGACTTTCATGGACCGGTTTTCCCGGTAATCCGTATTTGAC (site AGTCTTTCTGT) :: 0
TGGTCGGCATGGACCGGTTTTCCCGGTAATCCGTATTTGGC (site TGGACGGCTGC) :: 0
GAGATCACATGGACCGGTTTTCCCGGTAATCCGTATTTGAT (site GAGGTCACTAT) :: 0.0122
TCCACCACATGGACCGGTTTTCCCGGTAATCCGTATTTGCG (site TCCACCACTCG) :: 0.0102
ATGCTACCATGGACCGGTTTTCCCGGTAATCCGTATTTGCT (site GTGCTACCTAG) :: 0
CGCCGTACATGGACCGGTTTTCCCGGTAATCCGTATTTGTT (site CGCCGTACTAC) :: 0.00659
TTAATATCATGGACCGGTTTTCCCGGTAATCCGTATTTGAC (site CTAGTATCTGT) :: 0
GTATGCACATGGACCGGTTTTCCCGGTAATCCGTATTTGTG (site GTATGCACTCA) :: 1.34
